Data credit: ChEMBL document CHEMBL3872246

Listed here: items and their measured IC50 at 4 h.
test: Cytotoxicity against mouse RAW264.7 cells measured after 4 hrs by MTT assay; assay type: toxicity
Answer in µM, number only, no unit symbol.

compound: O=c1oc2c(O)c(O)ccc2cc1-c1ccc(O)c(O)c1
unit-spec: µM
IC50 at 4 h: 97.5

q: Give reported IC50 at 4 h value for "O=c1oc2c(O)cccc2cc1-c1ccc(O)c(O)c1"
a: 115

q: Give reported IC50 at 4 h value for "O=c1oc2c(O)c(O)ccc2cc1-c1cccc(O)c1"
a: 398

q: Give reported IC50 at 4 h value for CC1CS(=O)(=O)CCN1/N=C/c1ccc([N+](=O)[O-])o1 (stereo unspecified) [NIFURTIMOX]
a: 263

q: Give reported IC50 at 4 h value for "O=c1oc2c(O)c(O)ccc2cc1-c1ccccc1O"
a: 68.9

q: Give reported IC50 at 4 h value for "O=c1oc2c(O)c(O)ccc2cc1-c1ccccc1"
a: 26.1

----------
test: Oxidation potential of compound against Ag/Agcl reference electrode at 1 mM by cyclic voltametry; assay type: physicochemical; conditions: 1000 µM
Give Condition met when the value for Activity is at least 0.8 V. Give Condition not met when it is less.

structure-string: O=c1oc2c(O)cccc2cc1-c1cccc(O)c1
classification: Condition not met

# input for lookup
q: For this compound, is measured Activity 0.8 V or higher? "O=c1oc2cc(O)cc(O)c2cc1-c1ccccc1"
a: Condition met

----------
Listed here: items and their measured Activity.
test: Oxidation potential of compound against Ag/Agcl reference electrode at 1 mM by cyclic voltametry; type: physicochemical; details: 1000 µM

structure-string: O=c1oc2c(O)c(O)ccc2cc1-c1ccccc1O
Activity: 0.78 V
//
structure-string: O=c1oc2c(O)c(O)ccc2cc1-c1cccc(O)c1
Activity: 0.81 V
//
structure-string: O=c1oc2c(O)cccc2cc1-c1ccc(O)c(O)c1
Activity: 0.81 V
//
structure-string: O=c1oc2c(O)c(O)ccc2cc1-c1ccccc1
Activity: 0.81 V

Please find the next molecule below.
q: Give reported Activity value for "O=c1oc2ccc(O)cc2cc1-c1ccccc1O"
a: 0.79 V
